- studyTarget: Gal4-HNF4α (human HNF4α LBD) (Homo sapiens, UniProt P41235)
- Construct: uniprot entry: P41235-1, residues 142-377; expressed in transfected cells; host or cells: HEK293T
- Sequence (P41235 142-377): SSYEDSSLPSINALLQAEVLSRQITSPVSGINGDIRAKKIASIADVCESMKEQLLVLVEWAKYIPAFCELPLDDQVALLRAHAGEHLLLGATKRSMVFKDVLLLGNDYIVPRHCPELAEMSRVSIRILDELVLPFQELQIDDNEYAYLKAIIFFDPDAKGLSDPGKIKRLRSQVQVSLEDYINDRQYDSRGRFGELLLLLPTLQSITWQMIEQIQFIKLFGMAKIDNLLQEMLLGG
- methodSummary: Hybrid Gal4-HNF4α reporter gene assay in transiently transfected HEK293T cells
- Format: cell-based
- particulars: Table S1, primary screening, 50 µM
measuredQuantity: HNF4a-screening_activity_(mean_of_n=2)
Number only, please.

{"columns": ["compound", "measured"],
 "data": [
  ["O=C(O)c1cccc(-c2ccc(F)cc2F)c1 [Prestw-Frag-1238, OC(=O)c1cccc(c1)-c1ccc(F)cc1F]", 1.01]
]}

Request body: readout HNF4a-screening_activity_(mean_of_n=2), system Gal4-HNF4α (human HNF4α LBD) (Homo sapiens, UniProt P41235), query O=C1CCc2ccccc2N1 [Prestw-Frag-2464, O=C1CCc2ccccc2N1] . Return the value.
1.314

Request body: readout HNF4a-screening_activity_(mean_of_n=2), system Gal4-HNF4α (human HNF4α LBD) (Homo sapiens, UniProt P41235), query Cc1ccccc1Nc1ncccc1C(=O)O [Prestw-Frag-2806, Cc1ccccc1Nc1ncccc1C(O)=O] . Return the value.
1.238

Request body: readout HNF4a-screening_activity_(mean_of_n=2), system Gal4-HNF4α (human HNF4α LBD) (Homo sapiens, UniProt P41235), query C(=C\c1ccccc1)/CN1CCNCC1 [Prestw-Frag-1163, C(\C=C\c1ccccc1)N1CCNCC1] . Return the value.
1.316

Reference for the values: paper PMC7660650
